- Test system: HDQ-P1
- test method notes: normalised viability (% of control), CellTiter-Blue; higher = more viable cells (100 = DMSO, 0 = benzethonium chloride kill control)
- experimental setup: incubation time: 72 h

{"compound": "Nc1nc2[nH]cnc2c(=S)[nH]1 [Thioguanine] (1 nM)", "tgt": "HDQ-P1", "normalised viability [%]": 111}
{"compound": "CC[C@@H]1C(=O)OC[C@@H]1Cc1cncn1C [Pilocarpine] (4 nM)", "tgt": "HDQ-P1", "normalised viability [%]": 133}
{"compound": "Nc1ncn([C@@H]2O[C@H](CO)[C@@H](O)[C@H]2O)c(=O)n1 [Azacitidine] (1 nM)", "tgt": "HDQ-P1", "normalised viability [%]": 99.9}
{"compound": "CC1=C2C[C@H]3[C@@H](CC=C4C[C@@H](O)CC[C@@]43C)[C@@H]2CC[C@]12O[C@@H]1C[C@H](C)CN[C@H]1[C@H]2C [Cyclopamine] (1 nM)", "tgt": "HDQ-P1", "normalised viability [%]": 135}
